Biological target: T1, CLuc-FGF14-1b (human) (UniProt Q92915)
T1 sequence: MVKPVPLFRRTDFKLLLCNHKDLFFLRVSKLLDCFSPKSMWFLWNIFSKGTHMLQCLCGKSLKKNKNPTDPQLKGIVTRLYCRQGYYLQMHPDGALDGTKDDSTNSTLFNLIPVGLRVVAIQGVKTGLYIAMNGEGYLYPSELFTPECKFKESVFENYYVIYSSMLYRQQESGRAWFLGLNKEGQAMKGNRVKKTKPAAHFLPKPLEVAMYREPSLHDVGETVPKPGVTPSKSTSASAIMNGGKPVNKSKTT
Test: split reporter
*: point of attachment. Adamantane1carbonyl = O=C(C12CC3CC(CC(C3)C1)C2)*; OtBu = CC(C)(C)O*
# note: boundary value 20 µM maps to Not met; IC50 below it maps to Met

See these solved cases before continuing.
# Binder, Cat
data = [
    ("Adamantane1carbonyl-PLE(OtBu)V-OtBu (SMILES CC(C)C[C@H](NC(=O)[C@@H]1CCCN1C(=O)C12CC3CC(CC(C3)C1)C2)C(=O)N[C@@H](CCC(=O)OC(C)(C)C)C(=O)N[C@H](C(=O)OC(C)(C)C)C(C)C) [compound 23d]", "Not met"),
    ("Adamantane1carbonyl-PLE(OtBu)V-OEt (SMILES CCOC(=O)[C@@H](NC(=O)[C@H](CCC(=O)OC(C)(C)C)NC(=O)[C@H](CC(C)C)NC(=O)[C@@H]1CCCN1C(=O)C12CC3CC(CC(C3)C1)C2)C(C)C) [compound 23f]", "Met"),
    ("Adamantane1carbonyl-PLE(OtBu)V-{O‑propargyl} [compound 23b]", "Met"),
    ("Adamantane1carbonyl-PLE(OtBu)V-{O‑allyl} [compound 23a]", "Met"),
    ("Adamantane1carbonyl-PLE(OtBu)V-{O‑cyclohexyl} [compound 23e]", "Not met"),
]

Now look at this one.
Record Adamantane1carbonyl-PLE(OtBu)V-{O‑propyl} [compound 23g] : is its IC50 strictly below 20 µM? Not met
